- Test system: SF-539 CNS
- ASSAY_METHOD_TEXT: NCI tumour cell line growth inhibition, 48 h
MEASURED_PARAMETER: TGI

[[record]]
compound = "COC(=O)c1cc(-c2ccc(OC)c(OC)c2)oc1-c1ccc(OC)c(OC)c1"
meas_value = "96.2 µM"

[[record]]
compound = "Cn1c(=O)c2nc3c4ccccc4c(=O)n(C)c3nc2n(C)c1=O"
meas_value = "> 100 µM"

[[record]]
compound = "CN(C)CCNC(=O)c1ccc(Cl)c2ccc(-c3ccccc3)nc12"
meas_value = "12.8 µM"

[[record]]
compound = "CCCCCCCCc1ccc(OCCOCC[N+](C)(C)CC)cc1 (tested in a mixture with another compound)"
meas_value = "15 µM"

[[record]]
compound = "O=C1NC(N/N=C/c2c[nH]c3ccccc23)=N/C1=C\\c1cccs1"
meas_value = "> 100 µM"

[[record]]
compound = "Cn1ncc2c(Sc3ccc(Cl)cc3)ncnc21"
meas_value = "> 100 µM"

[[record]]
compound = "Cc1cccc(NC(=O)/C=C/c2ccccc2)c1C"
meas_value = "> 100 µM"

[[record]]
compound = "COc1ccc(OC)c(NC(=O)C2=C(C)NC(C)=C(C(=O)Nc3cc(OC)ccc3OC)C2c2ccco2)c1"
meas_value = "> 100 µM"

[[record]]
compound = "C=CCNC(=O)N1CC(C)C(=O)Nc2ccccc21 (stereo not given)"
meas_value = "> 100 µM"

[[record]]
compound = "C[C@H]1COC(c2ccccn2)=N1"
meas_value = "> 100 µM"


These measurements were taken from PubChem BioAssay (NCI).
